Each record here notes measured IRF reporter.
test system: RAW-Dual (murine macrophage reporter line); test: IRF reporter (Lucia luciferase) activity fold change vs agonist alone; higher = enhanced IRF activity; details: modulator concentration 10 µM; agonist: MPLA […]

{"compound": "CN1CCN(C(c2ccccc2)c2ccccc2)CC1.Cl.Cl", "assayed-system": "RAW-Dual (murine macrophage reporter line)", "IRF reporter": 1.03}

Ask: Bench note: what IRF reporter did CN(C(=NS(=O)(=O)c1ccccc1)c1ccccc1)c1ccc(O)cc1 show?
Reply: 1.24

###

tested on: RAW-Dual (murine macrophage reporter line); assay: viability score (confluency relative to resting cells, overnight) (fraction); higher = more viable, active = viable (0.7 or more); conditions: modulator concentration 10 µM
Valid outcomes are listed here; reply with one: active, inactive

Some entries whose results are on file:
{"molecule": "CCOc1ccc(OCCCCOc2cccc(C)c2)cc1", "assayed-system": "RAW-Dual (murine macrophage reporter line)", "label-value": "active"}
{"molecule": "Cl.Cl.OCCN1CCN(CCCN2c3ccccc3Sc3ccc(C(F)(F)F)cc32)CC1", "assayed-system": "RAW-Dual (murine macrophage reporter line)", "label-value": "inactive"}
{"molecule": "C[C@@H](O[C@H]1OCCN(Cc2n[nH]c(=O)[nH]2)[C@H]1c1ccc(F)cc1)c1cc(C(F)(F)F)cc(C(F)(F)F)c1", "assayed-system": "RAW-Dual (murine macrophage reporter line)", "label-value": "active"}
{"molecule": "COc1c(Cl)cc(C(=O)Nc2cccc(NC(=O)c3ccco3)c2)cc1Cl", "assayed-system": "RAW-Dual (murine macrophage reporter line)", "label-value": "active"}
{"molecule": "COc1ccc([C@H]2CNC(=O)C2)cc1OC1CCCC1", "assayed-system": "RAW-Dual (murine macrophage reporter line)", "label-value": "active"}
{"molecule": "Cc1cccc(C(=O)N2CCCC(c3nnc(CC(C)(C)C)o3)C2)c1 (stereo not drawn)", "assayed-system": "RAW-Dual (murine macrophage reporter line)", "label-value": "active"}
{"molecule": "O=C(CCCN1CCC(O)(c2ccc(Br)cc2)CC1)c1ccc(F)cc1", "assayed-system": "RAW-Dual (murine macrophage reporter line)", "label-value": "active"}
{"molecule": "CC1CC(=O)C2=C(C1)OC(N)=C(C#N)C2c1ccc(Br)cc1 (stereo not drawn)", "assayed-system": "RAW-Dual (murine macrophage reporter line)", "label-value": "active"}
{"molecule": "CSc1nc(C(C)(C)C)cc(C(F)(F)F)c1C#N", "assayed-system": "RAW-Dual (murine macrophage reporter line)", "label-value": "active"}
{"molecule": "Cc1c(-c2ccccc2)oc2c(C(=O)OCCN3CCCCC3)cccc2c1=O.Cl", "assayed-system": "RAW-Dual (murine macrophage reporter line)", "label-value": "active"}

Ask: Outcome? COC(=O)c1cccc(-c2ccc(C=NN3C(=O)C4C5C=CC(CC5)C4C3=O)o2)c1 (stereo not drawn)
Reply: active

Ask: Outcome? COc1ccc(CNCc2ccc3ccccc3c2)c(OC)c1
Reply: inactive

Ask: Outcome? CC1=NN(C(=O)OC(C)(C)C)C(O)(c2ccncc2)C1 (stereo not drawn)
Reply: active

Ask: Outcome? COCCOC(=O)C1=C(C)NC(C)=C(C(=O)OC/C=C/c2ccccc2)C1c1cccc([N+](=O)[O-])c1 (stereo not drawn)
Reply: active

Ask: Outcome? CCCCOc1ccc(CC(=O)NO)cc1
Reply: active

Ask: Outcome? COc1ccc(CNCc2ccc3ccccc3c2)cc1OC
Reply: active

Ask: Outcome? CC1Cc2ccccc2N1C(=O)c1cc2n(n1)CCCO2 (stereo not drawn)
Reply: active

Ask: Outcome? Cc1ccc([N+](=O)[O-])cc1S(=O)(=O)N(C)C
Reply: active

###

system: RAW-Dual (murine macrophage reporter line); assay: viability score (confluency relative to resting cells, overnight) (fraction); higher = more viable, active = viable (0.7 or more); conditions: modulator concentration 10 µM
test-readout: viability score
Give the figure by itself; no unit, no explanation.

Known viability score results, listed for orientation:
{"compound": "Cc1ccc(NC(Nc2ccc(C)cc2)=C(C(Cl)=C(Cl)Cl)[N+](=O)[O-])cc1", "assayed-system": "RAW-Dual (murine macrophage reporter line)", "test-readout": "viability score", "reported-result": 0.998}
{"compound": "CC(C)(C)C1CCC(OC(=O)CCC(=O)O)CC1 (stereo unspecified)", "assayed-system": "RAW-Dual (murine macrophage reporter line)", "test-readout": "viability score", "reported-result": 0.997}
{"compound": "COc1ccc(CNS(=O)(=O)c2ccc3ccccc3c2)cc1", "assayed-system": "RAW-Dual (murine macrophage reporter line)", "test-readout": "viability score", "reported-result": 0.972}

Ask: Bench note: what viability score did Cc1cc(CCC(=O)N(C)C2CN(c3ccc4nnc(C)n4n3)C2)ccc1F show?
Reply: 0.979

Ask: Bench note: what viability score did Cc1cc(OC2CN(C(=O)CSCc3ccccc3)C2)cc(=O)n1C1CC1 show?
Reply: 1

Ask: Bench note: what viability score did O=C(O)CCC(=O)Nc1ccc(Br)cn1 show?
Reply: 0.997

Ask: Bench note: what viability score did CC(C)(CO)NC(=O)C(c1ccccc1)c1ccccc1 show?
Reply: 0.996

Ask: Bench note: what viability score did O=C(Nc1ccc([N+](=O)[O-])cc1Cl)c1cccnc1 show?
Reply: 0.996

Ask: Bench note: what viability score did COC(=O)C(CCSC)NC(=O)c1cc(OC)c(OC)c(OC)c1 (stereo unspecified) show?
Reply: 0.712

###

test system: RAW-Dual (murine macrophage reporter line); test: NF-kB reporter (SEAP) activity fold change vs agonist alone; higher = enhanced NF-kB activity; details: modulator concentration 10 µM; agonist: MPLA […]
test-readout: NF-kB reporter

Known NF-kB reporter results, listed for orientation:
{"chemical-structure": "CC(=O)Nc1nc(C2CC2)cc(-c2ccco2)c1C#N", "assayed-system": "RAW-Dual (murine macrophage reporter line)", "test-readout": "NF-kB reporter", "reported-result": 1.02}
{"chemical-structure": "COc1ccc(C)cc1NC(=O)CN(c1cccc(Br)c1)S(=O)(=O)c1ccccc1", "assayed-system": "RAW-Dual (murine macrophage reporter line)", "test-readout": "NF-kB reporter", "reported-result": 0.915}
{"chemical-structure": "Cc1nnc(C(=O)NC(C)(C)c2nc(C(=O)NCc3ccc(F)cc3)c(O)c(=O)n2C)o1", "assayed-system": "RAW-Dual (murine macrophage reporter line)", "test-readout": "NF-kB reporter", "reported-result": 0.935}

Now let's try a different one.
Ask: Bench note: what NF-kB reporter did COC(=O)c1c(NC(=O)C2CCCCC2)sc2c1CC(C)(C)NC2(C)C show?
Reply: 1.47

###

tested on: RAW-Dual (murine macrophage reporter line); assay: IRF reporter (Lucia luciferase) activity fold change vs agonist alone; higher = enhanced IRF activity; conditions: modulator concentration 10 µM; agonist: MPLA […]
Each record here notes measured IRF reporter.
Give the figure by itself; no unit, no explanation.

{"compound": "O=C(CCCN1C(=O)c2cccc3cccc(c23)C1=O)NCCO", "IRF reporter": 1.05}
{"compound": "COc1ccccc1OCC(O)COC(N)=O (stereo not drawn)", "IRF reporter": 1.21}
{"compound": "CCN1CCN(Cc2ccc(Nc3ncc(F)c(-c4cc(F)c5nc(C)n(C(C)C)c5c4)n3)nc2)CC1.CS(=O)(=O)O", "IRF reporter": 0.314}

Ask: Find the measured IRF reporter: item CN(C)CCCN1c2ccccc2Sc2ccc(Cl)cc21 , target or system RAW-Dual (murine macrophage reporter line).
Reply: 2.24

Ask: Find the measured IRF reporter: item CC1=C(C)CC2C(=O)N(c3ccccc3C)C(=O)C2C1 (stereo not drawn) , target or system RAW-Dual (murine macrophage reporter line).
Reply: 1.33

Ask: Find the measured IRF reporter: item O=C1C(=Cc2ccncc2)CCC1=Cc1ccncc1 , target or system RAW-Dual (murine macrophage reporter line).
Reply: 1.28

Ask: Find the measured IRF reporter: item COc1ccc(N(CC(=O)NCCc2ccc(OC)c(OC)c2)S(=O)(=O)c2ccc(OC)c(OC)c2)cc1 , target or system RAW-Dual (murine macrophage reporter line).
Reply: 1.2

Ask: Find the measured IRF reporter: item Cc1cc(-c2ccc(N=Cc3ccc(Cl)c([N+](=O)[O-])c3)c(C)c2)ccc1N=Cc1ccc(Cl)c([N+](=O)[O-])c1 , target or system RAW-Dual (murine macrophage reporter line).
Reply: 1.13

###

system: RAW-Dual (murine macrophage reporter line); assay: IRF reporter (Lucia luciferase) activity fold change vs agonist alone; higher = enhanced IRF activity; conditions: modulator concentration 10 µM; agonist: 3'3'-cGAMP 10 ug/mL
test-readout: IRF reporter
Give the figure by itself; no unit, no explanation.

Known IRF reporter results, listed for orientation:
{"compound": "CCC(C)NS(=O)(=O)c1ccc([N+](=O)[O-])cc1 (stereo not drawn)", "IRF reporter": 0.883}
{"compound": "CCCC(=O)Nc1ccc(N2CCCCC2)cc1", "IRF reporter": 0.895}

Ask: Bench note: what IRF reporter did COc1ccc(N(CC(=O)Nc2ccc3ccccc3c2)S(C)(=O)=O)cc1OC show?
Reply: 0.907
